Cited source for all entries: ChEMBL document CHEMBL1765017

Organism: Homo sapiens
assay text: Selectivity index, ratio of IC50 for human MAO-A to IC50 for human MAO-B
endpoint label: Ratio IC50

• O=C1/C(=C/c2ccc(O)cc2)COc2cc(O)cc(O)c21 = 1330

I: Nc1cc(/C=C2\COc3ccccc3C2=O)ccc1O
II: O=C1/C(=C/c2ccc(O)c(O)c2)COc2ccccc21
III: CC(=O)Nc1ccc(/C=C2\COc3ccccc3C2=O)cc1
Prompt: Ordering: ascending Ratio IC50. Could you list the labels in the order requested?
Completion: III, I, II

* * *

system under test: Amine oxidase [flavin-containing] A (Homo sapiens, UniProt P21397)
Sequence (P21397 whole entry): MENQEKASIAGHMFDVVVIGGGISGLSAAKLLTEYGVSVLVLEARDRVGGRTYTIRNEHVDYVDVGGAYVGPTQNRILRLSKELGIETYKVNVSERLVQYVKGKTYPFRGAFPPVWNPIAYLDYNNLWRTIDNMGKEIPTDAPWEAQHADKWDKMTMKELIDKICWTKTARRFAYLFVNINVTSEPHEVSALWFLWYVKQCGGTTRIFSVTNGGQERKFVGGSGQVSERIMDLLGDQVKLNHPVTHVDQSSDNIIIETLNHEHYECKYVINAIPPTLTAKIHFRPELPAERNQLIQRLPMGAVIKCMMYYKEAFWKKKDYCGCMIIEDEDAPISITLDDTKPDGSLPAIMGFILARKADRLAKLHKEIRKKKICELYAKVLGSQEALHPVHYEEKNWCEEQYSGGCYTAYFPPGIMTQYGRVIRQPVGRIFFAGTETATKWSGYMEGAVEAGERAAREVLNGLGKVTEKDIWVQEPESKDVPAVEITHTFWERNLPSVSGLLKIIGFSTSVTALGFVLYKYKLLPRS
assay text: Inhibition of human recombinant MAO-A expressed in baculovirus infected BTI-TN-5B1-4 insect sells assessed as hydrogen peroxide production by fluorimetric method
pIC50: −log10 of the molar value.
endpoint label: pIC50

• Nc1cc(/C=C2\COc3ccccc3C2=O)ccc1O = 5.84

I: O=C1/C(=C/c2ccc(O)c(O)c2)COc2ccccc21
II: CC(=O)Nc1ccc(/C=C2\COc3ccccc3C2=O)cc1
Prompt: Pick one, I or II : lowest reported pIC50. Reply briefly: the label of your chosen item.
Completion: I
(I: 5.32, II: 5.68)
